target: acetylcholine receptor; experiment: SPR, AchR immobilized on CM5 chip, peptide at 10 uM
Kindly apply the following: True if Binding affinity (RU) is less than 30 RU, False in every other case.

RGVCKR [6mer-2-385]; False
KSLLRR [6mer-2-370]; False

Challenge: In plain terms, does KRDTMK [6mer-1-805] come in under 30 RU for Binding affinity (RU)?
Response given: True
